B1: TPR t1 (parent)
chain: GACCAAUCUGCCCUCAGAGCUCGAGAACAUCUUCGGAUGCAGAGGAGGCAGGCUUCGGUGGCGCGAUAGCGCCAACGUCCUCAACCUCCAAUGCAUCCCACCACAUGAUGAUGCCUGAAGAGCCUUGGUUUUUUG

- Variants of: B1
- Method description: polymerase ribozyme fitness, log enrichment relative to wild type (log ratio); higher = more active; in vitro selection for triplet polymerase activity
Measured metric: polymerase ribozyme fitness (log ratio)
Give a plain numeric answer without units written out.

Example cases with answers are listed next.
{"columns": ["Mutation label", "polymerase ribozyme fitness (log ratio)"],
 "data": [
  ["C86A A91U", -2.01],
  ["G117C A121G", -2.23],
  ["C56A U92G", -2.6],
  ["G60C G77U", -0.19]
]}

What measured polymerase ribozyme fitness (log ratio) goes with A91G A100C A111U A121G ?
-3.81

What polymerase ribozyme fitness (log ratio) value was documented for this variant, C53G C73A A105C ?
-3.2

What value of polymerase ribozyme fitness (log ratio) has been reported for the following variant? G35A C86G
-5.03

Suppose we examine the variant C15A G63A ; what polymerase ribozyme fitness (log ratio) value has been reported?
-2.56
